- Tested on: COLO 205
- assay-explanation: NCI tumour cell line growth inhibition, 48 h
Where a name gives a salt, the structure may show the parent alone. Calls of active or inactive are those of the source. Cut-off read from the data, not from the text of the source: active = GI50 up to about 1.1 µM and inactive = higher.
Respond using exactly one of the listed classes: 1 (active), -1 (inactive)

Field: example entries. Status: answers known.
compound | assigned-label
CC[C@]12CN3CCc4c([nH]c5ccccc45)[C@@](C(=O)OC)(c4cc5c(cc4OC)N(C)[C@H]4[C@@](O)(C(=O)OC)[C@H](OC(C)=O)[C@]6(CC)C=CCN7CC[C@]54[C@@H]76)CC(C3)[C@H]1O2 (some centres undefined) [VINLEUROSINE SULFATE] | 1
CC1(C)OC(=O)N(c2ccccc2)C12C=Cc1cccc([N+](=O)[O-])c1O2 (centres undefined) | -1
O=c1[nH]c(NCc2ccncc2)nc2[nH]cnc12 | -1
CCc1nnc(-c2nsc3ccccc23)s1 | -1
O=C1OC(c2ccccc2)=N/C1=C\c1cccc(F)c1 | -1
Nc1nc(Cl)cc(/N=N\c2ccccc2)n1 | -1
CC(=O)NC1(NC(C)=O)C2CC(C1Cc1ccccc1)C(C)(C)C2C (centres undefined) | -1
O=C(O)CNc1c2ccccc2nc2ccccc12 | -1

Next compound, please.
State the result this test recorded for `COc1ccc(-c2cc(-c3ccc(Nc4ccnc5cc(Cl)ccc45)cc3)nc(N)c2C#N)cc1` .
-1

###

- Test system: UACC-257
- assay-explanation: NCI tumour cell line growth inhibition, 48 h
Where a name gives a salt, the structure may show the parent alone. Calls of active or inactive are those of the source. Cut-off read from the data, not from the text of the source: active = GI50 up to about 1.1 µM and inactive = higher.
Respond using exactly one of the listed classes: active, inactive

Field: example entries. Status: answers known.
compound | assigned-label
Cc1ccc(-c2cc(O)c3cc4c(cc3n2)OCO4)cc1 | inactive
O=C(Nc1ccccc1)n1cc(-c2ccccn2)c(N2CCOCC2)n1 | inactive
COc1ccc(CCCNC(=O)c2cc(OC)c(OC)cc2CCO)cc1OC | inactive
N#CC1(C#N)NC(c2cccs2)C(C#N)(C#N)NC1c1cccs1 (stereo not drawn) | inactive
c1ccc(-c2cc3[nH]c4ccccc4[nH]c-3cc(-c3ccccc3)nn2)cc1 | inactive
CCOC(=O)[C-]([N+]#N)[Si](C)(C)C | inactive

State the result this test recorded for `COc1cc2c(c(OC)c1OC)-c1ccc(SC)c(=O)cc1[C@@H](NCc1ccc(C#N)cc1)CC2` .
active

Same lookup for `O=C(NNC(=O)c1ccccc1O)c1ccccc1O` , please.
active

Same lookup for COC(=O)C(=O)C(C(=O)C(=O)Nc1ccc(C)cc1C)c1nc2ccccc2nc1O (stereo not drawn) , please.
inactive

Same lookup for NC1=NN(c2ccccc2)C(=O)C1C(=O)CCC(=O)Nc1cccc(Cl)c1 (stereo not drawn) , please.
inactive

Same lookup for COc1ccc(C2CC(=O)CC(c3ccc(OC)cc3)C23C(=O)NC(=O)NC3=O)cc1 (stereo not drawn) , please.
inactive

Same lookup for CC[C@]12CN3CCc4c([nH]c5ccccc45)[C@@](C(=O)OC)(c4cc5c(cc4OC)N(C)[C@H]4[C@@](O)(C(=O)OC)[C@H](OC(C)=O)[C@]6(CC)C=CCN7CC[C@]54[C@@H]76)CC(C3)[C@H]1O2 (stereo partly drawn) [VINLEUROSINE SULFATE] , please.
inactive

Same lookup for COC(=O)C1Cc2cccc(C)c2C1 (stereo not drawn) , please.
inactive

Same lookup for `O=c1c2c3c(sc2nc2n1NC=NN2)CCCC3` , please.
inactive

Same lookup for `COc1cc([C@@H]2c3cc4c(cc3[C@@H](Nc3ccccc3C(=O)c3ccccc3)[C@H]3COC(=O)[C@H]23)OCO4)cc(OC)c1OC` , please.
active

Same lookup for `COc1cc2c(cc1OC)[C@@H]([C@H](O)c1ccccc1)NCC2` , please.
inactive

Same lookup for `COC1(OC)c2occc2C(=N)c2ccc(=O)oc21` , please.
inactive

Same lookup for CC(=O)OCC1OC(NC(=S)CCSc2nc3ccccc3c(=O)n2-c2ccccc2)C(OC(C)=O)C(OC(C)=O)C1OC(C)=O (stereo not drawn) , please.
inactive

Same lookup for COc1ccc(C2c3c(n(C)c(=O)n(C)c3=O)OC(N(C)C)(N(C)C)C2(F)F)cc1 (stereo not drawn) , please.
inactive

Same lookup for `COc1cc(/C=C2\C[C@H]3[C@@H]4CCc5cc(OCCN6CCCC6)ccc5[C@H]4CC[C@]3(C)C2=O)cc(OC)c1OC` , please.
inactive

Same lookup for `CC1=CC[C@@]2(C)[C@@H]([C@@H]1C)[C@H]1CC[C@@H]3[C@@]4(C)CC[C@H](O)C(C)(C)[C@@H]4CC[C@@]3(C)[C@]1(C)C[C@@H]2O` , please.
inactive

Same lookup for `O=C[C@@H](CO)O[C@H](C=O)n1cnc2c(=O)nc[nH]c21` , please.
inactive

Same lookup for `Cn1c([C@H](C#N)C(=O)c2cc(O)ccc2[N+](=O)[O-])nc2ccccc21` , please.
inactive

Same lookup for `COc1nn(Cc2ccccc2F)c2ccc([N+](=O)[O-])cc12` , please.
inactive

Same lookup for `O=C(O)CNc1c2ccccc2nc2ccccc12` , please.
inactive

Same lookup for `Cc1cc(=O)n(-c2ccccc2)c(=O)o1` , please.
inactive

###

- System: HOP-62
- assay-explanation: NCI tumour cell line growth inhibition, 48 h
Active and inactive are the calls of the source. Rule as the data show it: active = GI50 up to about 1.1 µM and inactive = higher.
Respond using exactly one of the listed classes: T = active, F = inactive

Field: example entries. Status: answers known.
molecule | assay-system | assigned-label
O=C(CSc1nnc(Cc2ccccc2)o1)Nc1cccc([N+](=O)[O-])c1 | HOP-62 | F
CCn1c(=O)c2c3ccc(O)cc3[nH]c2c2ccc(O)cc21 | HOP-62 | F
CC1=CC(=O)NP(=O)(Oc2ccc(C)cc2)N1 (stereo unspecified) | HOP-62 | F

State the result this test recorded for `Cc1cc(C)c(S(=O)(=O)N(CCCCCCN)OCCCON(CCCCCCN)S(=O)(=O)c2c(C)cc(C)cc2C)c(C)c1` .
F

Same lookup for `CCc1nnc(-c2nsc3ccccc23)s1` , please.
F

Same lookup for `Oc1ccc(-c2cc(-c3cc(-c4ccc(O)cc4)no3)on2)cc1` , please.
F

Same lookup for CC(C)=CCc1c(O)cc(O)c2c1OC(c1ccc(O)cc1)C(O)C2=O (stereo unspecified) , please.
F

Same lookup for `COc1ccc(-c2cc(-c3ccc(Nc4ccnc5cc(Cl)ccc45)cc3)nc(N)c2C#N)cc1` , please.
F

Same lookup for CCCCC(O)(c1ccccc1)C(O)(c1ccccc1)c1c(F)c(F)c(F)c(F)c1F (stereo unspecified) , please.
F

###

- Test system: TK-10
- assay-explanation: NCI tumour cell line growth inhibition, 48 h
Calls of active or inactive are those of the source. Rule as the data show it: active = GI50 up to about 1.1 µM and inactive = higher.
assay-endpoint: GI50

Some molecules with known GI50 results, for comparison:
molecule | assay-endpoint | value-measured
CCOc1ccc(/C(Cl)=C(\C=O)c2ccc(OC)c(OC)c2)cc1OCC | GI50 | 80.9 µM (inactive)
Cc1ccc(-c2c3c(n(C4OC(CO)C(O)C(O)C4O)c(=S)c2C#N)CC(C)(C)CC3=O)cc1 (stereo unspecified) | GI50 | > 100 µM (inactive)
C/C1=C\CC/C(C)=C/C=C(/C(C)C)CC/C(C(=O)O)=C/CC1 | GI50 | 56.8 µM (inactive)

Look at each molecule and report its GI50.
1. COc1ccc(CCCNC(=O)c2cc(OC)c(OC)cc2CCO)cc1OC
2. O=C(/C=C\Nc1ccccc1O)C(Cl)(Cl)Cl
3. C=CCNC(=O)CN(CC(=O)O)C1CCCCC1N(CC(=O)O)CC(=O)O (stereo unspecified)
4. CN(NC(=O)c1ccco1)C1=NCCCCN1
5. C=C(C)C1CC=C(C)C2(C1)OCC(C)(C)C(C)O2 (stereo unspecified)
6. CCOC(=O)N/N=C(\CC)NO
7. COC(c1ccccc1)C(c1ccccc1)N1CCOCC1 (stereo unspecified)
8. O=C(N/C(=C\c1ccc([N+](=O)[O-])cc1)c1nc2cc(Cl)ccc2[nH]1)c1ccccc1

1: > 100 µM (inactive); 2: 78.5 µM (inactive); 3: > 100 µM (inactive); 4: > 100 µM (inactive); 5: 47.4 µM (inactive); 6: > 100 µM (inactive); 7: > 100 µM (inactive); 8: 32.4 µM (inactive)

###

Please go through the items and note down their GI50.
- System: M14
- assay-explanation: NCI tumour cell line growth inhibition, 48 h
Active and inactive are the calls of the source. No stated cut-off is given here; in the data, active = GI50 up to about 1.1 µM and inactive = higher.

Some compounds with known GI50 results, for comparison:
smiles-string | GI50
Cc1ccc(Sc2ccccc2[N+](=O)[O-])cc1 | 29 µM (inactive)
COC1(OC)c2occc2C(=N)c2ccc(=O)oc21 | > 100 µM (inactive)
CCc1cccc(C)c1NC(=O)C1=C(C)NC(C)=C(C(=O)Nc2c(C)cccc2CC)C1c1ccc([N+](=O)[O-])cc1 | 34.8 µM (inactive)
C/C1=C\CC/C(C)=C/C=C(/C(C)C)CC/C(C(=O)O)=C/CC1 | 45 µM (inactive)

Moving on to another compound below.
GI50 lookup needed for `CCOc1ccc2ccc3cccnc3c2n1` , thanks.
47.2 µM (inactive)

Source listed as ChEMBL document CHEMBL1201862.
